Recorded residual activity for the following molecules
target: MERTK (human); experiment: radiometric filter-binding kinase assay, Kinase HotSpot; conditions: compound 0.5 µM; ATP 10 µM
Return type: number; implicit unit %.

O=C(c1ccccc1)c1ccc(N2CCOCC2)cc1O
94.5
CCc1nc(-c2ccc(OC)cc2)[nH]c1-c1ccncc1
92.1

Look at this molecule and give its reported residual activity. N#C/C(=C1/Nc2ccccc2S1)c1ccnc(NCCc2cccnc2)n1
88.9

# input molecule: O=c1c(-c2ccc(F)cc2)c(-c2ccncc2)[nH]n1-c1ccc(Cl)cc1 ; wanted: its residual activity
82.7

====

Reported residual activity is given for each of the following compounds.
molecular target: NUAK2 (human); experiment: radiometric filter-binding kinase assay, Kinase HotSpot; details: compound 0.5 µM; ATP 10 µM

Consider the following illustrative entries.
COc1cc2c(N3CCN(C(=O)Nc4ccc(OC(C)C)cc4)CC3)ncnc2cc1OCCCN1CCCCC1
100%
COc1cccc(-c2cc(=O)c3ccccc3o2)c1N
82.9%
O=c1c2ccccc2[nH]c(=S)n1CCN1CCC(=C(c2ccc(F)cc2)c2ccc(F)cc2)CC1
106%

From here, focus on the item given below.
Item: CCc1nc(-c2ccc(OC)cc2)[nH]c1-c1ccncc1 Test system: NUAK2 (human) Read-out: residual activity Value: ?
129%

====

Overview of recorded residual activity for various compounds
target: ADRBK1 (human) (UniProt P25098); experiment: radiometric filter-binding kinase assay, Kinase HotSpot; settings: compound 0.5 µM; ATP 10 µM
Sequence (P25098 whole entry, looked up): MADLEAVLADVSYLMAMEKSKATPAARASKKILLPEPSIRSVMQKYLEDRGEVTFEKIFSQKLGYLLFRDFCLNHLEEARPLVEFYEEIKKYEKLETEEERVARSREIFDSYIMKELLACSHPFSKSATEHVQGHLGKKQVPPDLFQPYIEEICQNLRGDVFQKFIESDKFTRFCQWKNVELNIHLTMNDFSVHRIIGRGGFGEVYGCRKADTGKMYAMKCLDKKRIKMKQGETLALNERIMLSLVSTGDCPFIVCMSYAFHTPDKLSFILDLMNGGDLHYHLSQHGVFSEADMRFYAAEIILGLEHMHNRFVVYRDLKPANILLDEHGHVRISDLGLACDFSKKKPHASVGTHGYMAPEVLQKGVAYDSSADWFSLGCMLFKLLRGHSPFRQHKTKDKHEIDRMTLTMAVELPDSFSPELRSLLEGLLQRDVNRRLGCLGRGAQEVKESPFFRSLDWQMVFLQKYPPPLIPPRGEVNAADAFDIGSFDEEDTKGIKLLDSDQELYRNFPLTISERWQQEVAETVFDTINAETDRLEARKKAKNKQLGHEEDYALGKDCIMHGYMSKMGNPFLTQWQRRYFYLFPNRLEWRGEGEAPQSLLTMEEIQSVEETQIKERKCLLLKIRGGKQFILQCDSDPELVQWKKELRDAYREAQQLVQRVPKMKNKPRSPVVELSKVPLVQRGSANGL
Kindly provide the numeric value in % only, without the unit symbol.

O=c1c2ccccc2[nH]c(=S)n1CCN1CCC(=C(c2ccc(F)cc2)c2ccc(F)cc2)CC1
100

Query (compound): O=C1NC(=O)c2c1c1c3ccccc3[nH]c1c1[nH]c3cc(Br)ccc3c21 ; field requested: residual activity
97.6

Data request, read-out residual activity, for COc1cc2c(cc1OC)-c1[nH]nc(Nc3cccc(F)c3)c1C2
93

Reported residual activity, compound O=C(O)c1ccc2c3c1cccc3c(=O)n1c3ccccc3nc21 : ____
99.3

I have this compound here, N/C(=N\N=C/c1ccc(-c2cccc([N+](=O)[O-])c2)o1)N[N+](=O)[O-] , and I need its recorded residual activity.
98.9

====

target: CDK1 CCNA2 (human) (UniProt P06493+P20248); experiment: radiometric filter-binding kinase assay, Kinase HotSpot; conditions: compound 0.5 µM; ATP 10 µM
Sequence (P06493 whole entry, looked up): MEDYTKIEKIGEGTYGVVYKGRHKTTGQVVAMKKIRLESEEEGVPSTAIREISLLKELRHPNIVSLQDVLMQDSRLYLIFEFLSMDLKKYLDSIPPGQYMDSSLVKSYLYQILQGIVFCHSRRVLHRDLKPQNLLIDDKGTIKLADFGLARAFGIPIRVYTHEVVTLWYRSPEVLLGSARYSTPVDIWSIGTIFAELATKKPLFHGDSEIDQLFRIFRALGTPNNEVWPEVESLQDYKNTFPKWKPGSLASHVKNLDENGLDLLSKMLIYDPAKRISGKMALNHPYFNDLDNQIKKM
Sequence (P20248 whole entry, looked up): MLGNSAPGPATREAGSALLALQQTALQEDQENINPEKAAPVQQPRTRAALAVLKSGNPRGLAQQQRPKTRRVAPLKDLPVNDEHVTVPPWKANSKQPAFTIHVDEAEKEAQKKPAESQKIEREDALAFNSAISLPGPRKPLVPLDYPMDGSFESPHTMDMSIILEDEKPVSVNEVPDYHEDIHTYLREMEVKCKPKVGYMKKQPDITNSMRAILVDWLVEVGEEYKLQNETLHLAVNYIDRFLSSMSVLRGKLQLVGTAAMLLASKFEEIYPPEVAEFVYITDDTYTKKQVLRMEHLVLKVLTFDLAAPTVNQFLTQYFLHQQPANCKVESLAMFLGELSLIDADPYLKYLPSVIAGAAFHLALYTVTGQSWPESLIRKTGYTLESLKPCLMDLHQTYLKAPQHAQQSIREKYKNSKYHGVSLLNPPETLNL
measure: residual activity
Please answer in the form of a number followed by its unit of measurement.

Please review the entries below; each comes with its answer.
Cc1cc(Nc2nc(-c3ccccc3)nc3ccccc23)n[nH]1
95%
COc1cc2c(cc1OC)-c1[nH]nc(Nc3cccc(F)c3)c1C2
92.6%

State the recorded residual activity for this entry: N#C/C(=C1/Nc2ccccc2S1)c1ccnc(NCCc2cccnc2)n1
83%

====

target: ZAP70 (human) (UniProt P43403); experiment: radiometric filter-binding kinase assay, Kinase HotSpot; conditions: compound 0.5 µM; ATP 10 µM
Sequence (P43403 whole entry, looked up): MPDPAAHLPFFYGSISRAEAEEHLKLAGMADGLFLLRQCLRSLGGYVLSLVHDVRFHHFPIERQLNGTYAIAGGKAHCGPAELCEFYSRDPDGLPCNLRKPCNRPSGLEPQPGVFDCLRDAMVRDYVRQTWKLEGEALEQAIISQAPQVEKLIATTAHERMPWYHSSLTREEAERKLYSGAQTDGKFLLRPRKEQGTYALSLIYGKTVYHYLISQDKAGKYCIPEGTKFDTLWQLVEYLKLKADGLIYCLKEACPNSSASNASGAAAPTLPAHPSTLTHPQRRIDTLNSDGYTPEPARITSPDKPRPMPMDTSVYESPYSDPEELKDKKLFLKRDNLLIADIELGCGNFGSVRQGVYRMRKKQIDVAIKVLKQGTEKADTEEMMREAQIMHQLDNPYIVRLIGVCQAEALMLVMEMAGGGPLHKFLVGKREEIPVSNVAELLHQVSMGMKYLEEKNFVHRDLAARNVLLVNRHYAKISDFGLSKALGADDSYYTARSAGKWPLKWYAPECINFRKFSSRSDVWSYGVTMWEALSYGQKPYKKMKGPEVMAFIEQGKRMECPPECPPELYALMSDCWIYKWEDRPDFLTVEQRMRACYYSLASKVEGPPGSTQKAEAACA
measure: residual activity (%)
# number only, unit % dropped from output

N#C/C(=C1/Nc2ccccc2S1)c1ccnc(NCCc2cccnc2)n1
94.5
O=C1NC(=O)c2cc(Nc3ccc(F)cc3)c(Nc3ccc(F)cc3)cc21
78.8
FC(F)(F)c1ccc(/C=C/c2nc(COc3ccc(CCCCn4ccnn4)cc3)co2)cc1
115
c1ccc(-c2cnc(Nc3ccc(OCCN4CCCC4)cc3)s2)cc1
105
O=C(c1ccccc1)c1ccc(N2CCOCC2)cc1O
95.9

What value of residual activity on ZAP70 (human) (UniProt P43403) does COc1cccc(-c2cc(=O)c3ccccc3o2)c1N have?
107

Lab request: please report residual activity under test system ZAP70 (human) (UniProt P43403) for COc1cc2ncnc(Nc3ccc(O)c(Br)c3)c2cc1OC
99.7

API: value(readout=residual activity, system=ZAP70 (human) (UniProt P43403)) for record N/C(=N\N=C/c1ccc(-c2cccc([N+](=O)[O-])c2)o1)N[N+](=O)[O-]
93.1

Param readout = residual activity; param system = ZAP70 (human) (UniProt P43403); param query = COc1cc2c(N3CCN(C(=O)Nc4ccc(OC(C)C)cc4)CC3)ncnc2cc1OCCCN1CCCCC1 ; response: value
116

Look up residual activity with ZAP70 (human) (UniProt P43403) for this compound: CCOc1cc2ncnc(Nc3cccc(Br)c3)c2cc1OCC
105

// fetch ZAP70 (human) (UniProt P43403) residual activity for CCCCc1c(-c2ccc(O)cc2)[nH]c2nccnc12
94.4

Param readout = residual activity; param system = ZAP70 (human) (UniProt P43403); param query = CCc1nc(-c2ccc(OC)cc2)[nH]c1-c1ccncc1 ; response: value
101

Record COc1cc2c(cc1OC)-c1[nH]nc(Nc3cccc(F)c3)c1C2 : what is its residual activity with ZAP70 (human) (UniProt P43403)?
95.3

====

Below: a set of entries, each annotated with reported residual activity.
molecular target: UniProt:P06241; assay: radiometric filter-binding kinase assay, Kinase HotSpot; conditions: compound 0.5 µM; ATP 10 µM
Sequence (P06241 whole entry, looked up): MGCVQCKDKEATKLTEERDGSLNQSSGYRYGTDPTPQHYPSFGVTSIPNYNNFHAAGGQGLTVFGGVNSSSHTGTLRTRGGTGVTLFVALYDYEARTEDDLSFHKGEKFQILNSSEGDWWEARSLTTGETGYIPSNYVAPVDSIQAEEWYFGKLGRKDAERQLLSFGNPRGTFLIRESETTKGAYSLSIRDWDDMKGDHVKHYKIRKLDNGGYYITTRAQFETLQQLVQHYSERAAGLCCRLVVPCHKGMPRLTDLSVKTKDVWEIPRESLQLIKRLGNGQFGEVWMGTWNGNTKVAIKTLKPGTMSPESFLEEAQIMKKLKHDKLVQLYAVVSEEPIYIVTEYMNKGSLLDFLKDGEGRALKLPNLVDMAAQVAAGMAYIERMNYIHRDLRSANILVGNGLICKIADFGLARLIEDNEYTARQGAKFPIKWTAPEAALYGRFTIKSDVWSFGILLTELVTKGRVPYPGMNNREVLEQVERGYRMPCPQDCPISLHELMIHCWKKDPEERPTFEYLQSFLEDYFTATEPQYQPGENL
Use % as the unit, but write only the number.

COc1cccc(-c2cc(=O)c3ccccc3o2)c1N
97.3
c1ccc(-c2cnc(Nc3ccc(OCCN4CCCC4)cc3)s2)cc1
81.1
CCc1nc(-c2ccc(OC)cc2)[nH]c1-c1ccncc1
95.1

From here, focus on the item given below.
Consider the compound shown here: CCOc1cc2ncnc(Nc3cccc(Br)c3)c2cc1OCC What is its recorded residual activity?
78.9

====

Readings of residual activity for the listed compounds
biological target: UniProtKB Q99986; test: radiometric filter-binding kinase assay, Kinase HotSpot; conditions: compound 0.5 µM; ATP 10 µM
Sequence (Q99986 whole entry, looked up): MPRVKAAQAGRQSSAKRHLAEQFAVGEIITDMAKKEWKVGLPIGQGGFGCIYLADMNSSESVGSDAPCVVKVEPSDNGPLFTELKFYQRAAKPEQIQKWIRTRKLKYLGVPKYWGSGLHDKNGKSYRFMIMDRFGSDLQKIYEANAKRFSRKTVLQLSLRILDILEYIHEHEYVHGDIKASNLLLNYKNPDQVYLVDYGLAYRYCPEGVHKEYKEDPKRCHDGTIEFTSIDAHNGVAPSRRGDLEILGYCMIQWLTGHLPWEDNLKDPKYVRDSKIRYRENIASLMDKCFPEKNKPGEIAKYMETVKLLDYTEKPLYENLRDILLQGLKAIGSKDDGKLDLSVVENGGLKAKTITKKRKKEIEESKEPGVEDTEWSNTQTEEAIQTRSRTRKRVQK
# number only, unit % dropped from output

Please state recorded residual activity (tested on UniProtKB Q99986) of CCCCc1c(-c2ccc(O)cc2)[nH]c2nccnc12
87.9

What measured residual activity is associated with c1ccc(-c2cnc(Nc3ccc(OCCN4CCCC4)cc3)s2)cc1 on UniProtKB Q99986?
89.1

Field: residual activity (UniProtKB Q99986). Entry: O=c1[nH]c2ccccc2n1C1CCN(Cc2ccc(-c3nc4cc5[nH]cnc5cc4nc3-c3ccccc3)cc2)CC1
98.3

Given the entry O=C(O)c1ccc2c3c1cccc3c(=O)n1c3ccccc3nc21 , what residual activity was observed with UniProtKB Q99986?
103

Requested read-out residual activity, target or system UniProtKB Q99986, entry O=C1NC(=O)c2cc(Nc3ccc(F)cc3)c(Nc3ccc(F)cc3)cc21
93

Param readout= residual activity; system= UniProtKB Q99986; entry= CCOc1cc2ncnc(Nc3cccc(Br)c3)c2cc1OCC ; returns value.
101

Reported residual activity for UniProtKB Q99986, given COc1cc2ncnc(Nc3ccc(O)c(Br)c3)c2cc1OC ?
86.4

Could you share what residual activity was measured for O=c1c(-c2ccc(F)cc2)c(-c2ccncc2)[nH]n1-c1ccc(Cl)cc1 , tested on UniProtKB Q99986?
92.9

====

target: UniProtKB P35968; assay: radiometric filter-binding kinase assay, Kinase HotSpot; details: compound 0.5 µM; ATP 10 µM
Sequence (P35968 whole entry, looked up): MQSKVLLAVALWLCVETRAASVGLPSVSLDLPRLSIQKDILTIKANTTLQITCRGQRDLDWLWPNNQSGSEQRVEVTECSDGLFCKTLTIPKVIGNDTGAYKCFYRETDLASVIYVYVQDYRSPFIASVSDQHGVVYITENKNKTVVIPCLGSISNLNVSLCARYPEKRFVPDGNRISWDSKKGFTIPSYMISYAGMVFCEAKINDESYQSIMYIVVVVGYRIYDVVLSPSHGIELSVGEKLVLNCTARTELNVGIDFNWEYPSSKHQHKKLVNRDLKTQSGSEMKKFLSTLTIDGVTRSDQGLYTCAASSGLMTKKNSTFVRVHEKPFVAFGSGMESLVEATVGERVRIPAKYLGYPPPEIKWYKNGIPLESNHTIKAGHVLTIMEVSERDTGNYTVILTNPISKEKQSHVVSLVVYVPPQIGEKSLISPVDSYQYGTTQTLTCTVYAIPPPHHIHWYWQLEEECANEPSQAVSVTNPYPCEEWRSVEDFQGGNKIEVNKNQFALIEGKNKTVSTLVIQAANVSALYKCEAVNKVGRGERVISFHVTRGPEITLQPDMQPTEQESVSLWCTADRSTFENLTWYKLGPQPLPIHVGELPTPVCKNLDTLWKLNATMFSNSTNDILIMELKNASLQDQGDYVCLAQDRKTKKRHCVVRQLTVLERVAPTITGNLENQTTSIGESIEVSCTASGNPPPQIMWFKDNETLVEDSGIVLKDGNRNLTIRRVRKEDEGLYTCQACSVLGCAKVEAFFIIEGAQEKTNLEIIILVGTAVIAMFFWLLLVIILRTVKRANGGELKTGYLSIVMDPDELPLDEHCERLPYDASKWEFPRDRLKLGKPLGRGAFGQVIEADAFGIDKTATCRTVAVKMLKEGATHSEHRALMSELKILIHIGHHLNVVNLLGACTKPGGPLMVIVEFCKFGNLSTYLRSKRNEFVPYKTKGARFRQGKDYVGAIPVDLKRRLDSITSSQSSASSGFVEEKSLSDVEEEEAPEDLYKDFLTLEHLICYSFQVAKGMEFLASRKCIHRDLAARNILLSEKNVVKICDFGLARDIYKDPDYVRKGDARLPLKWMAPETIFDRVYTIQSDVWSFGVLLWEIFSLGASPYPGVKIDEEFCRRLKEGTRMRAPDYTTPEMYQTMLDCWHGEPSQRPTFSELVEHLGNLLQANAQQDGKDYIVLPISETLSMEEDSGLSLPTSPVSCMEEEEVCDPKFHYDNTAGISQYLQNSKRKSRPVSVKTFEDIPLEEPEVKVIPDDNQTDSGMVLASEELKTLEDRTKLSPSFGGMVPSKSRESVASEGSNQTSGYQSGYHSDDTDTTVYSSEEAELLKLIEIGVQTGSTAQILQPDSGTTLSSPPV
Property: residual activity; scope: individual compounds
Form entry: enter the amount, then its unit.

COc1cc2ncnc(Nc3ccc(O)c(Br)c3)c2cc1OC
69.6%
O=c1c2ccccc2[nH]c(=S)n1CCN1CCC(=C(c2ccc(F)cc2)c2ccc(F)cc2)CC1
93.1%
N/C(=N\N=C/c1ccc(-c2cccc([N+](=O)[O-])c2)o1)N[N+](=O)[O-]
96.7%
N#C/C(=C1/Nc2ccccc2S1)c1ccnc(NCCc2cccnc2)n1
99.7%
N#CCCc1ccc2c(c1)-c1[nH]c3ccc([N+](=O)[O-])cc3c1CC(=O)N2
75.5%

Entry O=c1c(-c2ccc(F)cc2)c(-c2ccncc2)[nH]n1-c1ccc(Cl)cc1 : reported residual activity = ?
90.6%

Query (compound): N#Cc1c(NC(=O)c2cccc3ccccc23)sc2c1CCCC2 ; field requested: residual activity
100%

Consider the compound CCc1nc(-c2ccc(OC)cc2)[nH]c1-c1ccncc1 and give its measured residual activity.
103%

====

molecular target: UniProtKB Q13188; assay: radiometric filter-binding kinase assay, Kinase HotSpot; conditions: compound 0.5 µM; ATP 10 µM
Sequence (Q13188 whole entry, looked up): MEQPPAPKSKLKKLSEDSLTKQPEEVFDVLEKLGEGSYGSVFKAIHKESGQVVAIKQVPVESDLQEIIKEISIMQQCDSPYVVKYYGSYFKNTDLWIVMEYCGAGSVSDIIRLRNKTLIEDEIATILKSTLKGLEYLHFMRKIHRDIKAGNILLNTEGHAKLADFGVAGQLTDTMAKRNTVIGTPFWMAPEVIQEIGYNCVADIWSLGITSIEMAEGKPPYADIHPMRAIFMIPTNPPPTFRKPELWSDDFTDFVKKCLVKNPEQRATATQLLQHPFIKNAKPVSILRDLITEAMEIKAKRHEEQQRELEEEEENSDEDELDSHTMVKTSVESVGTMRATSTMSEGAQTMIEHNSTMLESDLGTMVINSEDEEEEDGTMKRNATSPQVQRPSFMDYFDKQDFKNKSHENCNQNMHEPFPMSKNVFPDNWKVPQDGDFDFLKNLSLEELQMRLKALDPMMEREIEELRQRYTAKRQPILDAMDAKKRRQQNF
API: label(entry) gives 1 (yes) if the entry's residual activity is strictly smaller than 90%; on equality or larger values it gives 0 (no).

Cc1cc(Nc2nc(-c3ccccc3)nc3ccccc23)n[nH]1
1 (yes)
COc1cccc(-c2cc(=O)c3ccccc3o2)c1N
0 (no)
CCc1nc(-c2ccc(OC)cc2)[nH]c1-c1ccncc1
0 (no)

Here's an entry: O=c1[nH]c2ccccc2n1C1CCN(Cc2ccc(-c3nc4cc5[nH]cnc5cc4nc3-c3ccccc3)cc2)CC1 . Is its residual activity below 90%?
0 (no)

Is it true that residual activity reported for N#CCCc1ccc2c(c1)-c1[nH]c3ccc([N+](=O)[O-])cc3c1CC(=O)N2 is less than 90%?
1 (yes)

I wonder whether CCCCc1c(-c2ccc(O)cc2)[nH]c2nccnc12 has residual activity below 90%. Can you tell?
1 (yes)

Would you kindly verify if residual activity of Cn1cc(/C=C2\C(=O)Nc3ccc(S(N)(=O)=O)cc32)c2ccccc21 is strictly less than 90%?
1 (yes)

Does COc1cc2c(cc1OC)-c1[nH]nc(Nc3cccc(F)c3)c1C2 have residual activity strictly under 90%?
0 (no)

Does N#C/C(=C1/Nc2ccccc2S1)c1ccnc(NCCc2cccnc2)n1 have residual activity strictly under 90%?
0 (no)

Consider the compound O=S(=O)(NCCNC/C=C/c1ccc(Br)cc1)c1cccc2cnccc12 . Is its residual activity strictly less than 90%?
1 (yes)

Threshold test, residual activity < 90%: c1ccc(-c2cnc(Nc3ccc(OCCN4CCCC4)cc3)s2)cc1
0 (no)

Determine if FC(F)(F)c1ccc(/C=C/c2nc(COc3ccc(CCCCn4ccnn4)cc3)co2)cc1 shows residual activity strictly lower than 90%.
0 (no)

Check if residual activity falls below 90% for N#Cc1c(NC(=O)c2cccc3ccccc23)sc2c1CCCC2 .
0 (no)

Consider the compound O=C(O)c1ccc2c3c1cccc3c(=O)n1c3ccccc3nc21 . Is its residual activity strictly less than 90%?
0 (no)

residual activity strictly < 90% for this compound? O=C1NC(=O)c2c1c1c3ccccc3[nH]c1c1[nH]c3cc(Br)ccc3c21
1 (yes)
